The measurements presented in this section are drawn from ChEMBL document CHEMBL1914343.

test system: Mycobacterium tuberculosis; assay: Antimycobacterial activity against Mycobacterium tuberculosis H37Rv ATCC 27294 by microplate alamar blue assay; type: functional
measurement.kind: MIC (µg/mL)
Answers are plain numbers, in µg/mL.

Reference set (2 entries):
{"compound": "N#Cc1ccn2c(-c3ccccc3)c(-c3ccccc3)c(C(O)c3ccc(Cl)cc3)c2c1 (centres undefined)", "measurement.kind": "MIC", "output.unit": "µg/mL", "readout.number": 6.25}
{"compound": "Cc1ccc(C(O)c2c(-c3ccccc3)c(-c3ccccc3)n3ccc(C#N)cc23)cc1 (centres undefined)", "measurement.kind": "MIC", "output.unit": "µg/mL", "readout.number": 6.25}

Turning now to a further compound:
Could you tell me which MIC is on file for N#Cc1ccn2c(-c3ccccc3)c(-c3ccccc3)c(C(O)c3ccccc3)c2c1 (centres undefined) ?
6.25

----------
tested on: Mycobacterium tuberculosis; assay: Antimycobacterial activity against Mycobacterium tuberculosis H37Rv ATCC 27294 at 6.25 ug/mL by microplate alamar blue assay; assay type: functional
Give measured inhibition at 6.25 µg/mL for each item. Keep answers brief.

{"compound": "N#Cc1ccn2c(-c3ccccc3)c(-c3ccccc3)c(Br)c2c1", "target.under.test": "Mycobacterium tuberculosis", "inhibition at 6.25 µg/mL": "69%"}
{"compound": "CC(O)(c1ccccc1)c1c(-c2ccccc2)c(-c2ccccc2)n2ccc(C#N)cc12 (stereo not given)", "target.under.test": "Mycobacterium tuberculosis", "inhibition at 6.25 µg/mL": "71%"}
{"compound": "CC(=O)c1c(-c2ccccc2)c(-c2ccccc2)n2ccc(C#N)cc12", "target.under.test": "Mycobacterium tuberculosis", "inhibition at 6.25 µg/mL": "21%"}
{"compound": "Cc1ccc(C(O)c2c(-c3ccccc3)c(-c3ccccc3)n3ccc(C#N)cc23)cc1 (stereo not given)", "target.under.test": "Mycobacterium tuberculosis", "inhibition at 6.25 µg/mL": "90%"}

Sample COc1ccc(C(O)c2c(-c3ccccc3)c(-c3ccccc3)n3ccc(C#N)cc23)cc1 (stereo not given) — what was its inhibition at 6.25 µg/mL?
87%

----------
Target or system Polyunsaturated fatty acid lipoxygenase ALOX15 (Oryctolagus cuniculus, UniProt P12530); recorded quantity IC50.
Numbers only, in µM.

Answered cases to consult:
{"structure.smiles.string": "COc1ccc(-c2c(-c3ccccc3)c(-c3ccccc3)n3ccc(C#N)cc23)cc1", "target.under.test": "Polyunsaturated fatty acid lipoxygenase ALOX15 (Oryctolagus cuniculus, UniProt P12530)", "output.unit": "µM", "readout.number": 37}
{"structure.smiles.string": "N#Cc1ccn2c(-c3ccccc3)c(-c3ccccc3)c(C=O)c2c1", "target.under.test": "Polyunsaturated fatty acid lipoxygenase ALOX15 (Oryctolagus cuniculus, UniProt P12530)", "output.unit": "µM", "readout.number": 61}
{"structure.smiles.string": "N#Cc1ccn2c(-c3ccccc3)c(-c3ccccc3)c(OCOCc3ccccc3)c2c1", "target.under.test": "Polyunsaturated fatty acid lipoxygenase ALOX15 (Oryctolagus cuniculus, UniProt P12530)", "output.unit": "µM", "readout.number": 39}
{"structure.smiles.string": "COc1c(-c2ccccc2)c(-c2ccccc2)n2ccc(C#N)cc12", "target.under.test": "Polyunsaturated fatty acid lipoxygenase ALOX15 (Oryctolagus cuniculus, UniProt P12530)", "output.unit": "µM", "readout.number": 77}

Go through the list and state IC50 for each entry.
1. CC(=O)c1c(-c2ccccc2)c(-c2ccccc2)n2ccc(C#N)cc12
2. N#Cc1ccn2c(-c3ccccc3)c(-c3ccccc3)c(Cc3ccccc3)c2c1
3. N#Cc1ccn2c(-c3ccccc3)c(-c3ccccc3)c(CO)c2c1

44
46
34
